- System: NCI-H23 lung
- Test description: NCI tumour cell line growth inhibition, 48 h
Reported metric: TGI

Molecule: Cn1c(=O)c2c(nc(N/N=C3/SCC(=O)N3Cc3ccccc3)n2C)n(C)c1=O
Reported metric: TGI
Endpoint result: > 100 µM
--
Molecule: NC(N)=NCCCC(NC(=O)c1c2ccccc2nc2ccccc12)C(=O)O (stereo unspecified)
Reported metric: TGI
Endpoint result: > 100 µM
--
Molecule: COc1cc2c(cc1OC)C(=O)/C(=C/c1ccc(N(C)C)cc1)CC2
Reported metric: TGI
Endpoint result: > 10 µM
--
Molecule: COc1cc2cc3c(c(O)c2c(O)c1-c1c(OC)cc2cc4c(c(O)c2c1O)C(=O)O[C@H](C)C4)C(=O)O[C@H](C)C3
Reported metric: TGI
Endpoint result: > 100 µM
--
Molecule: COc1cc2c(cc1OC)C(=O)N(c1ccc(OCCN3CCCC3)cc1)C2=O
Reported metric: TGI
Endpoint result: > 100 µM
--
Molecule: COc1ccc(C(=O)O/N=C2/CCCCC2CN(C)C)cc1 (stereo unspecified)
Reported metric: TGI
Endpoint result: > 100 µM

* * *

- System: SK-MEL-2 melanoma
- Test description: NCI tumour cell line growth inhibition, 48 h
# maps each entry to its TGI

Compound: C#CCOC(=O)C(=[N+]=[N-])C(=O)CC(C)C
TGI: > 10 µM
//
Compound: CC1CCCN1CCCOC(=O)c1ccc(OC2C=CCCC2)cc1 (stereo not drawn)
TGI: > 100 µM
//
Compound: NC(N)=N/N=C(/c1ccccc1)c1ccccc1F
TGI: 36.7 µM
//
Compound: COC(=O)[C@H](Cc1cn(C)cn1)NC(=O)[C@@H](NC(=O)Nc1cc(C(F)(F)F)cc(C(F)(F)F)c1)C(C)C
TGI: > 10 µM
//
Compound: CC(=O)OCC1OC(n2c(=S)n(-c3ccccc3)c(=O)c3cc(Br)cc(Br)c32)C(OC(C)=O)C(OC(C)=O)C1OC(C)=O (stereo not drawn)
TGI: > 100 µM
//
Compound: CCCCCCCCCCCCOC1C(C(CC(=O)N2CCN(Cc3ccc4c(c3)OCO4)CC2)NS(=O)(=O)c2cc(Cl)cc(Cl)c2)OC2OC(C)(C)OC21 (stereo not drawn)
TGI: > 100 µM
//
Compound: NC(=O)c1ncn(C2OC(CO)C(O)C2O)c1N (stereo not drawn)
TGI: > 100 µM
//
Compound: Cc1nc(-n2nc(-c3ccccc3)cc2-c2ccccc2)sc1C(=O)/C=C/c1ccccc1
TGI: > 100 µM

* * *

- Tested on: DU-145 prostate
- Test description: NCI tumour cell line growth inhibition, 48 h
TGI values by entry

Compound: COc1ccc(/C(CC2OC(=O)c3ccccc32)=N\NC(N)=O)cc1 (configuration not stated)
TGI: > 100 µM
//
Compound: COc1ccc2c(c1)CC[C@@H]1C2CC[C@]2(C)C(=C=CP(=O)(O)O)CCC12 (some centres not stated)
TGI: > 100 µM
//
Compound: c1cncc(C2ONC3=NCCN32)c1 (configuration not stated)
TGI: > 100 µM
//
Compound: CCOC(=O)c1cc2c3c(cc(OC)c2[nH]1)N(C(=O)OCC)CC3
TGI: > 100 µM
//
Compound: O=c1nc2[nH]c3c(-c4n[nH]c(=O)[nH]c4=O)cccc3c2n[nH]1
TGI: > 100 µM
//
Compound: c1cc2c(cc1[C@@H]1OC[C@@H]3[C@H]1CO[C@H]3c1ccc3c(c1)OCO3)OCO2
TGI: > 100 µM
//
Compound: O=C(O)C1(C(O)c2ccccc2)SCCCS1 (configuration not stated)
TGI: > 10 µM
//
Compound: CC1CCCN1CCCOC(=O)c1ccc(OC2C=CCCC2)cc1 (configuration not stated)
TGI: > 100 µM
//
Compound: O=C(Nc1ccc(C(F)(F)F)cc1[N+](=O)[O-])c1cccnc1
TGI: > 100 µM
//
Compound: C#CCOC(=O)C(=[N+]=[N-])C(=O)CC(C)C
TGI: > 10 µM
//
Compound: CN(C)c1ccc(C2CC(C)(O)Oc3cc4c(cc32)OCO4)cc1 (configuration not stated)
TGI: > 100 µM
//
Compound: CC(=O)C(C(C)=O)[C@H]1OC(C)(C)O[C@H]1[C@H]1COC(C)(C)O1
TGI: > 100 µM

* * *

- Test system: SF-539 CNS
- Test description: NCI tumour cell line growth inhibition, 48 h

Smiles structure: C#CCOC(=O)C(=[N+]=[N-])C(=O)CC(C)C
TGI: > 10 µM
--
Smiles structure: CN(C)C(=O)Oc1ccc(C(=S)Nc2ccccc2)cc1
TGI: > 100 µM
--
Smiles structure: N#CCCN(CCC#N)c1ccc(C=Nc2ccc(F)cc2)cc1
TGI: > 83.2 µM

* * *

Collected TGI values appear next to each entry.
- System: SW-620 colon
- Test description: NCI tumour cell line growth inhibition, 48 h

Compound: Cc1ncc(CSC(=N)N)n1Cc1ccccc1
TGI: > 100 µM
--
Compound: CC(C)=CC(=O)c1c(C(=O)O)nc2ccccc2[n+]1[O-]
TGI: > 100 µM
--
Compound: CC(=O)O[C@H]1C(=O)[C@@]2(C)[C@H]([C@H](OC(=O)c3ccco3)[C@]3(O)C[C@H](OC(=O)[C@H](O)[C@@H](NC(=O)c4ccccc4)c4ccccc4)C(C)=C1C3(C)C)[C@]1(OC(C)=O)CO[C@@H]1C[C@@H]2O
TGI: > 25 µM
--
Compound: COC(=O)[C@@H]1COC(=O)N1
TGI: > 100 µM
--
Compound: CC(CC=O)Nc1nn2c(=O)c3ccccc3nc2s1 (stereo not drawn)
TGI: > 100 µM
--
Compound: O=c1[nH]c2ccc([N+](=O)[O-])c(Cl)c2c2ccccc12
TGI: 17.9 µM
--
Compound: CCCCCCCCCCCCOC1C(C(CC(=O)N2CCN(Cc3ccc4c(c3)OCO4)CC2)NS(=O)(=O)c2cc(Cl)cc(Cl)c2)OC2OC(C)(C)OC21 (stereo not drawn)
TGI: > 100 µM
--
Compound: CC1(Cl)CC(C)(/C=C/Cl)C(Cl)CC1Cl (stereo not drawn)
TGI: 30.8 µM
--
Compound: C[n+]1c(-c2ccc(/C=N/NC(=O)C(=O)N/N=C/c3ccc(-c4cn5ccccc5[n+]4C)cc3)cc2)cn2ccccc21
TGI: > 100 µM
--
Compound: COc1cccc(C2C(C#N)=C(N)Oc3cc4c(cc32)OCO4)c1 (stereo not drawn)
TGI: > 63.2 µM
--
Compound: O=C(c1ccccc1)C(Br)C(Br)c1ccccc1 (stereo not drawn)
TGI: 3.28 µM
--
Compound: C#Cc1cccc(NC(=O)C2CCCN(C(=O)CCl)C2)c1 (stereo not drawn)
TGI: > 82.5 µM
--
Compound: COc1cc(CCc2ccc(OC(C)=O)cc2)cc(OC)c1OC
TGI: > 100 µM
--
Compound: COc1ccc(/C=N/Nc2nnc3c(n2)c2ccccc2c2nn(-c4ccccc4Cl)nc23)cc1
TGI: > 100 µM
--
Compound: S=c1[nH]n2c(COc3cc(Cl)c(OCc4nnc5sc(=S)[nH]n45)cc3Cl)nnc2s1
TGI: > 100 µM
--
Compound: CC1CCCN1CCCOC(=O)c1ccc(OC2C=CCCC2)cc1 (stereo not drawn)
TGI: 46.4 µM
--
Compound: CC1=CCN(c2ccccn2)OC1c1ccccc1 (stereo not drawn)
TGI: > 100 µM
--
Compound: O=C(O)/C=C/c1ccncc1
TGI: > 100 µM
--
Compound: COc1cc2cc3c(c(O)c2c(O)c1-c1c(OC)cc2cc4c(c(O)c2c1O)C(=O)O[C@H](C)C4)C(=O)O[C@H](C)C3
TGI: > 100 µM
--
Compound: NNC(=O)N/N=C1\CN(c2ccc(Cl)cc2Cl)C(=O)C(=O)C1c1nc2ccccc2o1 (stereo not drawn)
TGI: > 100 µM
--
Compound: COC(=O)[C@H](Cc1cn(C)cn1)NC(=O)[C@@H](NC(=O)Nc1cc(C(F)(F)F)cc(C(F)(F)F)c1)C(C)C
TGI: 8.25 µM
--
Compound: CC(C)=CCCC1(C)C2COC(=O)C21 (stereo not drawn)
TGI: > 100 µM
--
Compound: COc1cc(N(CCC#N)CCC#N)ccc1/C(N=Nc1ccc(C(=O)O)cc1)=N/NC(=O)c1cc(Br)ccc1O
TGI: > 150 µg/mL
--
Compound: O=C1/C(=C/c2ccc(Cl)cc2)Oc2ccccc21
TGI: > 100 µM
--
Compound: COc1ccc(N=Nc2c(N)nn3c(SC)c(C#N)c(N)nc23)cc1
TGI: 22.8 µM
--
Compound: NC(N)=N/N=C(/c1ccccc1)c1ccccc1F
TGI: 21.1 µM
--
Compound: N#CCC1(n2cc(-c3ncnc4[nH]ccc34)cn2)CN(C2CCN(C(=O)c3ccnc(C(F)(F)F)c3F)CC2)C1
TGI: > 100 µM
--
Compound: OCC(O)C(O)C(O)C(O)c1nn[nH]n1 (stereo not drawn)
TGI: > 100 µM
--
Compound: COC(=O)CC1CC2(C(=O)OC)c3[nH]c4ccccc4c3CCN2C1=O (stereo not drawn)
TGI: > 100 µM
--
Compound: CCCCCCCCCCCCCCCC(=O)OCC1OC(n2cc(F)c(=O)[nH]c2=O)C(NC(=O)N(CCCl)N=O)C(O)C1O (stereo not drawn)
TGI: 6.58 µM
--
Compound: COc1ccc(/C(CC2OC(=O)c3ccccc32)=N\NC(N)=O)cc1 (stereo not drawn)
TGI: > 100 µM
--
Compound: Cc1ccc(NCCN(C)C)c2c(=O)c3cc(O)ccc3sc12
TGI: 5.76 µM
--
Compound: Cc1cc(=O)n2nc(CSc3nnc(Sc4cc(O)ccc4O)s3)sc2n1
TGI: 44.5 µM
